The origin of these recorded values is the RNAGym collection of RNA variant scans (doi:10.1126/science.aae0568).

B1: tRNA (parent)
chain: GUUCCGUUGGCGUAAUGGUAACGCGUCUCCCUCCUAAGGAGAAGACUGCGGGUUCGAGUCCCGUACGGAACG

# Variants of: B1
# ASSAY REMARKS: yeast fitness relative to wild type (ratio to wild type); higher = fitter; tRNA-Arg(CCU), competitive growth, 37 C, YPD
Fewer inactive variants are shown than the library holds.
Consider the following variants; for each one, report its yeast fitness.
Give bare numbers.

Worked set:
MUTANT | MEASURED VALUE
U2A U16G G18C | 0.614
C29U A45U A65C | 0.544
U26C C46A | 0.882
G6A U54A | 0.674
C27U C31U U53C | 0.678

Parameters: items (list). Returns: yeast fitness for each item.
1. C5U A14G A65G
2. C5G U28C
3. C11U C33G
4. G6C A45G
5. A21C G67C
6. C60G C66A

0.69
0.737
0.734
0.823
0.654
0.541

Parameters: items (list). Returns: yeast fitness for each item.
1. G6A G51C
2. G9A C30G
3. U8C G10A A40G
4. C22A C55G
5. C27G A43C A57U

[0.595, 0.707, 0.551, 0.63, 0.599]
